- ASSAYED TARGET: T1, HLA-A*02:01 (peptide-receptive MHC class I monomer after UV-ligand exchange) (human)
- T1 construct: Monomers made with a UV-sensitive peptide that is cleaved by UV and exchanged for the test peptide; captured on streptavidin plates; also called MHC molecules
- MEASUREMENT DESCRIPTION: UV-ligand exchange + anti-b2m ELISA; exchange yield grade: + >=10%, ++ >=20%, +++ >=50, ++++ >=75%
Below, each of the binders is paired with its reported peptide exchange yield value.

> print(dat)
                                     binder             result.type     result
1  FLMEEVHMI [peptide FLMEEVHMI (SEQ ID NO: 24)]  peptide exchange yield  50 to 75%
2  VLIGDVLVAV [peptide VLIGDVLVAV (SEQ ID NO: 57)]  peptide exchange yield      ≥ 75%
3  AMLEEVNYI [peptide AMLEEVNYI (SEQ ID NO: 1)]  peptide exchange yield  50 to 75%
4  KLFAIPILL [peptide KLFAIPILL (SEQ ID NO: 11)]  peptide exchange yield  50 to 75%
5  TLHRETFYL [peptide TLHRETFYL (SEQ ID NO: 88)]  peptide exchange yield      ≥ 75%

Need peptide exchange yield, item KAIGSLKEV [peptide KAIGSLKEV (SEQ ID NO: 72)] 50 to 75%

And for AMNSQILEV [peptide AMNSQILEV (SEQ ID NO: 101)] ? 50 to 75%

Try the binder FLLSQIVAL [peptide FLLSQIVAL (SEQ ID NO: 50)] 50 to 75%
